# tested.target: HLA-A*03:01 (Homo sapiens, UniProt P04439)
# test.summary: REVEAL Epitope Discovery System in vitro MHC-peptide binding score
# cond: positive control peptide set at 100%, greater than 50 = good or high affinity binding
A*03:01 In Vitro values, listed per item
property.measured: A*03:01 In Vitro

>>> measured_value("IFWVKRGSK [9-mer variant junction peptide, R31S]")
10.40
>>> measured_value("VAFIIFWVK [9-mer of CD28/4-1BB junction region, mutation none]")
1.50
>>> measured_value("IIFWVSRGR [9-mer variant junction peptide, K28S]")
25.30
>>> measured_value("IFWVQRGNK [9-mer variant junction peptide, K28Q/R31N]")
23.20
>>> measured_value("AFIIFWVHR [9-mer variant junction peptide, K28H]")
0.30

====

# tested.target: HLA-A*11:01 (Homo sapiens, UniProt P04439, A114D/D185E/E176A/F33Y/L180Q/S129P/T187R)
# test.summary: REVEAL Epitope Discovery System in vitro MHC-peptide binding score
# Set-up: key: % binding, normalized to positive control peptide set at 100%
# cond: binding normalized to positive control peptide set at 100%, greater than 50 considered good or high affinity binding
property.measured: A*11:01 In Vitro Score

>>> measured_value("IFWVKRGLK [9-mer variant junction peptide, R31L]")
61.10
>>> measured_value("IIFWVQRGA [9-mer variant junction peptide, K28Q/R31A]")
56.50
>>> measured_value("VAFIIFWVK [9-mer of CD28/4-1BB junction region, mutation none]")
109.20
>>> measured_value("IFWVKRGNK [9-mer variant junction peptide, R31N]")
45.90
>>> measured_value("IIFWVLRGR [9-mer variant junction peptide, K28L]")
35.20
>>> measured_value("IIFWVKRGA [9-mer variant junction peptide, R31A]")
22.60
>>> measured_value("WVKRGNKKL [9-mer variant junction peptide, R31N]")
4.10
>>> measured_value("FIIFWVHRG [9-mer variant junction peptide, K28H]")
0.90
>>> measured_value("IFWVHRGRK [9-mer variant junction peptide, K28H]")
36.60
>>> measured_value("AFIIFWVAR [9-mer variant junction peptide, K28A]")
51.80
>>> measured_value("IFWVKRGAK [9-mer variant junction peptide, R31A]")
69.70
>>> measured_value("IFWVARGRK [9-mer variant junction peptide, K28A]")
34.90
